System: HT-29
Procedure details: Antiproliferative activity against human HT-29 cells after 96 hrs by MTT assay
Format: functional, cell-based
Measurement setup: Homo sapiens, HT-29, 96 h
pIC50: −log10 of the molar value.
Please use 1 (yes) whenever pIC50 is not below 7, and 0 (no) whenever it is.

Example entries and their recorded answers appear below.
>  <Molecule>
O=C1NN(c2ccc(Cl)cc2)C(=O)C2(CSC3=C2C(=O)c2ncccc2C3=O)N1 (racemic)

>  <Assayed target>
HT-29

>  <Label class>
0 (no)

$$$$
>  <Molecule>
COc1cccc2c1C(=O)c1c(O)c3c(c(O)c1C2=O)C[C@@](O)(C(=O)CO)C[C@@H]3O[C@H]1C[C@H](N)[C@H](O)[C@H](C)O1

>  <Assayed target>
HT-29

>  <Label class>
1 (yes)

$$$$
>  <Molecule>
O=C1NN(c2ccccc2)C(=O)C2(CSC3=C2C(=O)c2ncccc2C3=O)N1 (racemic)

>  <Assayed target>
HT-29

>  <Label class>
0 (no)

$$$$
>  <Molecule>
CCCCc1ccc(N2C(=O)NC3(CSC4=C3C(=O)c3ncccc3C4=O)C2=O)cc1 (racemic)

>  <Assayed target>
HT-29

>  <Label class>
1 (yes)

$$$$
>  <Molecule>
O=C1NN(c2ccc([N+](=O)[O-])cc2)C(=O)C2(CSC3=C2C(=O)c2ncccc2C3=O)N1 (racemic)

>  <Assayed target>
HT-29

>  <Label class>
0 (no)

$$$$

Exercise: Identify whether the reported pIC50 of the following molecule is 7 or greater: COc1ccc(N2NC(=O)NC3(CSC4=C3C(=O)c3ncccc3C4=O)C2=O)cc1 (racemic)
Solution: 0 (no)

Exercise: Identify whether the reported pIC50 of the following molecule is 7 or greater: CCc1ccc(N2C(=O)NC3(CSC4=C3C(=O)c3ncccc3C4=O)C2=O)cc1 (racemic)
Solution: 1 (yes)

Exercise: Identify whether the reported pIC50 of the following molecule is 7 or greater: COc1ccc(N2C(=O)NC3(CSC4=C3C(=O)c3ncccc3C4=O)C2=O)cc1 (racemic)
Solution: 1 (yes)

Exercise: Identify whether the reported pIC50 of the following molecule is 7 or greater: O=C1C2=C(C(=O)c3ncccc31)C1(CS2)NC(=O)N(c2ccc(Cl)cc2)C1=O (racemic)
Solution: 1 (yes)

Exercise: Identify whether the reported pIC50 of the following molecule is 7 or greater: O=C1NNC(=O)C2(CSC3=C2C(=O)c2ncccc2C3=O)N1 (stereo in doubt; (+)-3)
Solution: 0 (no)

Exercise: Identify whether the reported pIC50 of the following molecule is 7 or greater: CCN(CC)c1ccc(N2C(=O)NC3(CSC4=C3C(=O)c3ncccc3C4=O)C2=O)cc1 (racemic)
Solution: 1 (yes)

Exercise: Identify whether the reported pIC50 of the following molecule is 7 or greater: O=C1NC(=O)C2(CSC3=C2C(=O)c2ncccc2C3=O)N1 (single isomer, unassigned; (+))
Solution: 0 (no)

Exercise: Identify whether the reported pIC50 of the following molecule is 7 or greater: Cc1ccc(N2NC(=O)NC3(CSC4=C3C(=O)c3ncccc3C4=O)C2=O)cc1 (racemic)
Solution: 0 (no)

Exercise: Identify whether the reported pIC50 of the following molecule is 7 or greater: O=C1C2=C(C(=O)c3ncccc31)C1(CS2)NC(=O)N(c2ccc(N3CCOCC3)cc2)C1=O (racemic)
Solution: 0 (no)

Exercise: Identify whether the reported pIC50 of the following molecule is 7 or greater: CCCc1ccc(N2C(=O)NC3(CSC4=C3C(=O)c3ncccc3C4=O)C2=O)cc1 (racemic)
Solution: 1 (yes)

Exercise: Identify whether the reported pIC50 of the following molecule is 7 or greater: CCCCCc1ccc(N2C(=O)NC3(CSC4=C3C(=O)c3ncccc3C4=O)C2=O)cc1 (racemic)
Solution: 0 (no)

---

Hi there, I'd appreciate the recorded pIC50 for every entry that follows.
Test system: CCRF-SB
Procedure details: Antiproliferative activity against human CCRF-SB cells after 96 hrs by MTT assay
Format: functional, cell-based
Give bare numbers, as −log10 of the molar value.

Solved entries:
>  <Molecule>
Cc1ccc(N2C(=O)NC3(CSC4=C3C(=O)c3ncccc3C4=O)C2=O)cc1 (racemic)

>  <Assayed target>
CCRF-SB

>  <pIC50>
7.70

$$$$
>  <Molecule>
O=C1C2=C(C(=O)c3ncccc31)C1(CS2)NC(=O)N(c2ccc(Cl)cc2)C1=O (racemic)

>  <Assayed target>
CCRF-SB

>  <pIC50>
8.00

$$$$
>  <Molecule>
O=C1NN(c2ccc([N+](=O)[O-])cc2)C(=O)C2(CSC3=C2C(=O)c2ncccc2C3=O)N1 (racemic)

>  <Assayed target>
CCRF-SB

>  <pIC50>
8.70

$$$$
>  <Molecule>
O=C1C2=C(C(=O)c3ncccc31)C1(CS2)NC(=O)N(c2ccncc2)C1=O (racemic)

>  <Assayed target>
CCRF-SB

>  <pIC50>
9.00

$$$$
>  <Molecule>
O=C1NN(c2ccc(Cl)cc2)C(=O)C2(CSC3=C2C(=O)c2ncccc2C3=O)N1 (racemic)

>  <Assayed target>
CCRF-SB

>  <pIC50>
7.29

$$$$
>  <Molecule>
Cc1ccc(N2NC(=O)NC3(CSC4=C3C(=O)c3ncccc3C4=O)C2=O)cc1 (racemic)

>  <Assayed target>
CCRF-SB

>  <pIC50>
7.43

$$$$
>  <Molecule>
CCN(CC)c1ccc(N2C(=O)NC3(CSC4=C3C(=O)c3ncccc3C4=O)C2=O)cc1 (racemic)

>  <Assayed target>
CCRF-SB

>  <pIC50>
8.05

$$$$
>  <Molecule>
CCCCc1ccc(N2C(=O)NC3(CSC4=C3C(=O)c3ncccc3C4=O)C2=O)cc1 (racemic)

>  <Assayed target>
CCRF-SB

>  <pIC50>
6.72

$$$$

Please supply pIC50 for each of the following items, keeping them in order.
1. COc1ccc(N2C(=O)NC3(CSC4=C3C(=O)c3ncccc3C4=O)C2=O)cc1 (racemic)
2. O=C1C2=C(C(=O)c3ncccc31)C1(CS2)NC(=O)N(c2ccccc2)C1=O (racemic)
3. COc1cc([C@@H]2c3cc4c(cc3[C@@H](O[C@@H]3O[C@@H]5CO[C@@H](C)O[C@H]5[C@H](O)[C@H]3O)[C@H]3COC(=O)[C@H]23)OCO4)cc(OC)c1O [ETOPOSIDE]
4. CCCc1ccc(N2C(=O)NC3(CSC4=C3C(=O)c3ncccc3C4=O)C2=O)cc1 (racemic)
5. O=C1NC(=O)C2(CSC3=C2C(=O)c2ncccc2C3=O)N1 (racemic)
6. COc1ccc(N2NC(=O)NC3(CSC4=C3C(=O)c3ncccc3C4=O)C2=O)cc1 (racemic)

Solution:
8.00
7.52
7.00
8.70
6.82
7.46

Please supply pIC50 for each of the following items, keeping them in order.
1. CN(C)c1ccc(N2C(=O)NC3(CSC4=C3C(=O)c3ncccc3C4=O)C2=O)cc1 (racemic)
2. O=C1C2=C(C(=O)c3ncccc31)C1(CS2)NC(=O)N(c2ccc(N3CCOCC3)cc2)C1=O (racemic)

Solution:
1. 9.00
2. 6.19

---

Hi there, I'd appreciate the recorded IC50 for every entry that follows.
Tested on: XF498
Procedure details: Antiproliferative activity against human XF498 cells after 96 hrs by MTT assay
Assay type: functional, cell-based
Measurement setup: XF498, 96 h
Give bare numbers, in µM.

>  <Compound>
CCCCCc1ccc(N2C(=O)NC3(CSC4=C3C(=O)c3ncccc3C4=O)C2=O)cc1 (racemic)

>  <Assayed target>
XF498

>  <IC50 [µM]>
0.83

$$$$
>  <Compound>
Cc1ccc(N2C(=O)NC3(CSC4=C3C(=O)c3ncccc3C4=O)C2=O)cc1 (racemic)

>  <Assayed target>
XF498

>  <IC50 [µM]>
1.35

$$$$
>  <Compound>
COc1cccc2c1C(=O)c1c(O)c3c(c(O)c1C2=O)C[C@@](O)(C(=O)CO)C[C@@H]3O[C@H]1C[C@H](N)[C@H](O)[C@H](C)O1

>  <Assayed target>
XF498

>  <IC50 [µM]>
0.16

$$$$
>  <Compound>
O=C1C2=C(C(=O)c3ncccc31)C1(CS2)NC(=O)N(c2ccncc2)C1=O (racemic)

>  <Assayed target>
XF498

>  <IC50 [µM]>
1.12

$$$$

For the next question, use this compound.
Exercise: Param item = O=C1NN(c2ccc(Cl)cc2)C(=O)C2(CSC3=C2C(=O)c2ncccc2C3=O)N1 (racemic) ; retrieve measured IC50.
Solution: 2.5

---

System: HT-29
Procedure details: Antiproliferative activity against human HT-29 cells after 96 hrs by MTT assay
Assay type: functional, cell-based
Measurement setup: Homo sapiens, HT-29, 96 h
Hi there, I'd appreciate the recorded log10(IC50) for every entry that follows.
Use the decimal logarithm of IC50 (µM).

>  <Compound>
COc1cc([C@@H]2c3cc4c(cc3[C@@H](O[C@@H]3O[C@@H]5CO[C@@H](C)O[C@H]5[C@H](O)[C@H]3O)[C@H]3COC(=O)[C@H]23)OCO4)cc(OC)c1O [ETOPOSIDE]

>  <Endpoint result>
0.40

$$$$
>  <Compound>
Cc1ccc(N2C(=O)NC3(CSC4=C3C(=O)c3ncccc3C4=O)C2=O)cc1 (racemic)

>  <Endpoint result>
-3.00

$$$$
>  <Compound>
O=C1C2=C(C(=O)c3ncccc31)C1(CS2)NC(=O)N(c2ccncc2)C1=O (racemic)

>  <Endpoint result>
-2.70

$$$$

Please supply log10(IC50) for each of the following items, keeping them in order.
1. CC(C)(C)c1ccc(N2C(=O)NC3(CSC4=C3C(=O)c3ncccc3C4=O)C2=O)cc1 (racemic)
2. O=C1C2=C(C(=O)c3ncccc31)C1(CS2)NC(=O)N(c2ccc([N+](=O)[O-])cc2)C1=O (racemic)

Solution:
1: -0.82; 2: -0.60
